target: HEK293t cells stably transfected with rat nNOS (Rattus norvegicus (Rat), UniProt P29476); test: nNOS cell-based assay (nitrite production, Griess reagent); details: inhibition of nitric oxide production in HEK293t cells stably expressing nNOS
Attribute: pIC50
Expect pIC50 as a plain number equal to -log10 of the molar concentration.

Check out these entries, answers already filled in.
IN: Please report the recorded pIC50 for C=CCO[C@@H]1CN(C(=O)OC(C)(C)C)C[C@@H]1Cc1cc(C)cc(N(C(=O)OC(C)(C)C)C(=O)OC(C)(C)C)n1 [Compound 1, reference compound] .
OUT: 3.49

IN: Given Cc1cc(N)nc(C[C@H]2CNC[C@H]2OCCNCc2ccco2)c1 , state its recorded pIC50.
OUT: 3.38

IN: I am curious: what pIC50 value has been reported for Cc1cc(N)nc(C[C@H]2CNC[C@H]2OCCNCc2ccccc2O)c1 ?
OUT: 3.28

IN: Consider the compound COc1ccccc1CNCCO[C@@H]1CNC[C@@H]1Cc1cc(C)cc(N)n1 and give its measured pIC50.
OUT: 3.72

IN: Suppose we examine the compound Cc1cc(N)nc(C[C@H]2CNC[C@H]2OCCNCc2ccccc2F)c1 ; what pIC50 value has been reported?
OUT: 3.92

Consider now this further compound.
IN: Query: pIC50; subject: Cc1cc(C[C@H]2CN(C(=O)OC(C)(C)C)C[C@H]2OCC=O)nc(N(C(=O)OC(C)(C)C)C(=O)OC(C)(C)C)c1 [Compound 2, reference compound]
OUT: 3.90
